Target: NADPH oxidase 5 (Homo sapiens)
Assay: NOX5-dependent H2O2 signal modulators, primary screen, NOX inhibitor project, cell-based, HEK293-NOX5, Amplex Red fluorescence (AID 1161)
Details: HEK293-NOX5, ionomycin, 45 min, higher = more signal
satisfied means recorded z-score is -1 or above; not satisfied means it is below -1.

Could you tell me if the measured z-score of CC(C)=NOCc1cccc(-c2cc(-c3ccccc3)no2)c1 reaches -1 or more?
satisfied

Could you tell me if the measured z-score of CC(CCC(=O)OC[C@H]1O[C@H](C#Cc2ccccc2)C=C[C@@H]1Oc1ccc(C)cc1)=NOC[C@@H](O)COCc1ccco1 reaches -1 or more?
satisfied

Could you tell me if the measured z-score of CCOC(=O)[C@H](Cc1ccccc1)NC(=O)CCC1CC(OC(=O)NCCc2ccc(F)cc2)CC2(CCCC(COC(=O)NCC(c3ccccc3)c3ccccc3)O2)O1 (stereo partly drawn) reaches -1 or more?
satisfied

Could you tell me if the measured z-score of COCC1=C2[C@@H](CCc3ccccc3)OB(O)C[C@@H]2n2c(=O)n(-c3ccccc3)c(=O)n2C1 reaches -1 or more?
not satisfied

Could you tell me if the measured z-score of O=C1C2C=CC(C(O)c3ccc([N+](=O)[O-])cc3)N(Nc3ccc([N+](=O)[O-])cc3)C2C(=O)N1c1ccccc1 (stereo not drawn) reaches -1 or more?
not satisfied
